Recorded values, source the supplement of paper PMC10567573.

The following variants are listed with their measured protein stability index values.
B1: FAM46D (parent)
chain: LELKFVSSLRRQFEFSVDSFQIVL

- Variants of: B1
- assay.method.text: protein stability index of a GFP-peptide fusion (GPS, HEK-293T) (PSI 1-6); higher = more stable;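 note: lentivirally expressed fusions sorted by FACS into six bins by GFP to DsRed ratio, PSI derived from sequencing read proportions per bin multiplied by bin number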
- condition.set: c terminus: a fixed tail appended
quantity.measured: protein stability index

>>> df
                      sequence_data  reported_value
 0  LELKFVSSLRRQFEFSVDSFQIVE [L24E]             3.4
 1   LELKFVSKLRRQFEFSVDSFQIVL [S8K]            2.05
 2   LELKKVSSLRRQFEFSVDSFQIVL [F5K]            1.64
 3  LELKFVSSLRRQFEFSVDSTQIVL [F20T]            1.62
 4  LELKFVSSLRRQFEFSVSSFQIVL [D18S]            2.94
 5  LELKFVSSLRRQKEFSVDSFQIVL [F13K]            2.91
 6  LELKFVSSLRRQFEFSVDSFQFVL [I22F]            3.23
 7   LEAKFVSSLRRQFEFSVDSFQIVL [L3A]            3.39
 8  LELKFVSSLRRQFIFSVDSFQIVL [E14I]            3.52
 9   LNLKFVSSLRRQFEFSVDSFQIVL [E2N]             2.6
10   FELKFVSSLRRQFEFSVDSFQIVL [L1F]            3.04
11  LELKFVSSLRRHFEFSVDSFQIVL [Q12H]            2.46
12   LELKNVSSLRRQFEFSVDSFQIVL [F5N]            2.37
13  LELKFVSSLRRQIEFSVDSFQIVL [F13I]            3.87
14  LELKFVSSLRRQFEFSVDSFQISL [V23S]            2.88
15   LELKDVSSLRRQFEFSVDSFQIVL [F5D]            2.09
16   LELSFVSSLRRQFEFSVDSFQIVL [K4S]            3.75
17  LELKFVSSLRRRFEFSVDSFQIVL [Q12R]            2.39
18   LELKFSSSLRRQFEFSVDSFQIVL [V6S]            2.49
19   LELNFVSSLRRQFEFSVDSFQIVL [K4N]            2.95
20   LELKFVISLRRQFEFSVDSFQIVL [S7I]            2.85
21   LELKFWSSLRRQFEFSVDSFQIVL [V6W]               4
